- targetUnderTest: UniProtKB P17752
- Sequence (P17752 1-444): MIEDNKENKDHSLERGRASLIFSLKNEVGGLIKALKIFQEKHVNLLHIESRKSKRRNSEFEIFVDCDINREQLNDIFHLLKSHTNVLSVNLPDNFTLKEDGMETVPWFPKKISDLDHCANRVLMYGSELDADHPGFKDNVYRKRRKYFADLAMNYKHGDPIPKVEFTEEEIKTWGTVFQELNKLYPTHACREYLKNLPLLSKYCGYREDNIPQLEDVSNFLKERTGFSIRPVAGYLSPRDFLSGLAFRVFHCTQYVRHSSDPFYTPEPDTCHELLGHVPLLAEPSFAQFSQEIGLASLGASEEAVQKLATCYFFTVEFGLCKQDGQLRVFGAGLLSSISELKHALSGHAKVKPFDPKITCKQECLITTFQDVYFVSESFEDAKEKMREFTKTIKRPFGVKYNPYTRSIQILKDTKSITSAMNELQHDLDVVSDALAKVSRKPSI
- runDescription: biochemical
readout: log10 of IC50 (log10 of the value in nM)
Friendly reminder: values = log10 of IC50, unit nM.

Hello, I would appreciate it if you could give log10 of IC50 for each entry below.
1. O=C(COc1ccc(N2CCOCC2)nc1Cl)N1CCc2nc3ccccn3c2C1c1cnc(N2CCOCC2)s1 (centres unmarked)
2. CCc1nc(C)ccc1OCC(=O)N1CCc2nc3ccccn3c2C1c1ccc(Cl)cc1F (centres unmarked)

[out]
[2.59, 1.89]

---

- targetUnderTest: human TPH1 (Homo sapiens, UniProt P17752)
- Sequence (P17752 1-444): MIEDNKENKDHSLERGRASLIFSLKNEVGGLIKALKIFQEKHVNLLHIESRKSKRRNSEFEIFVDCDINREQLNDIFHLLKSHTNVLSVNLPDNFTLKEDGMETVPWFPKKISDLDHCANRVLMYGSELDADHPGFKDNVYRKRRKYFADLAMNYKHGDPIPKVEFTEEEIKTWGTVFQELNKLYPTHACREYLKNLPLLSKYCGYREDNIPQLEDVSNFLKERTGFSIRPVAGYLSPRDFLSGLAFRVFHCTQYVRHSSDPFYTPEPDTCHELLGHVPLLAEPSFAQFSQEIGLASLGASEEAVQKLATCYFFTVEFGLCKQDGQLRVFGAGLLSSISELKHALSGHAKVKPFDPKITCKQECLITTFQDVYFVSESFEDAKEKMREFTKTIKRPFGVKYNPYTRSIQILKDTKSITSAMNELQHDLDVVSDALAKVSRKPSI
- runDescription: biochemical
readout: IC50 (nM)
Answers are plain numbers, in nM.

As a guide, the following entries are already answered.
CN(CC(F)(F)F)c1ccc(OCC(=O)N2CCc3nc4ccccn4c3C2c2ccc(Cl)cc2F)c(Cl)n1 (stereo not drawn)	14
O=C(COc1ccc(N2CCOCC2)nc1Cl)N1CCc2nc3cccnn3c2C1c1ccc(C2CC2)cc1F (stereo not drawn)	8
CCc1nc(NS(C)(=O)=O)ccc1OCC(=O)N1CCc2nc3ccc(F)cn3c2C1c1ccc(Cl)cc1F (stereo not drawn)	34

Hello, I would appreciate it if you could give IC50 for each entry below.
1. O=C(COc1ccc(CN2CCOCC2)cc1Cl)N1CCc2nc3cc(C(F)(F)F)ccn3c2C1c1ccc(OCC(F)(F)F)nc1 (stereo not drawn)
2. N#Cc1ccc(C2c3c(nc4ccccn34)CCN2C(=O)COc2ccc(C(=O)NC3CC3)nc2Cl)c(F)c1 (stereo not drawn)
3. Cc1csc(C2c3c(nc4cc(C(F)(F)F)ccn34)CCN2C(=O)COc2ccc(CN3CCOCC3)cc2Cl)n1 (stereo not drawn)
4. COc1ccc(C2c3c(nc4ccc(C)cn34)CCN2C(=O)COc2ccc3ccccc3c2)cc1OC (stereo not drawn)
5. CCc1ncc(C2c3c(nc4cc(C(F)(F)F)ccn34)CCN2C(=O)COc2ccc3ccccc3c2)cn1 (stereo not drawn)
6. COc1cc(C2c3c(nc4cc(C(F)(F)F)ccn34)CCN2C(=O)COc2ccc3ccccc3c2)ccc1OCCN(C)C (stereo not drawn)
7. O=C(NC1CC1)c1ccc(OCC(=O)N2CCc3nc4ccccn4c3C2c2ccc(OCCO)cc2F)c(Cl)n1 (stereo not drawn)

[out]
1. 86
2. 31
3. 427
4. 38
5. 203
6. 70
7. 80
